target: Env of HIV-1 strain 3016.v5.c45 (HIV-1); assay: cell-based or functional assay
Assay Endpoint: neutralization IC50 (µg/mL)
Give the value in µg/mL but do not write µg/mL after it.

Data request: Dear colleague, I am looking for the recorded neutralization IC50 of the following binder: γ15κ3 (antibody, V domains shown) VH: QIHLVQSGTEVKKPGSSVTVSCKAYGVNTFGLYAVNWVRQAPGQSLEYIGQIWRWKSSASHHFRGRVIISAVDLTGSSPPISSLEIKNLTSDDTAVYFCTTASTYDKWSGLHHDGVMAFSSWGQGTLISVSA VL: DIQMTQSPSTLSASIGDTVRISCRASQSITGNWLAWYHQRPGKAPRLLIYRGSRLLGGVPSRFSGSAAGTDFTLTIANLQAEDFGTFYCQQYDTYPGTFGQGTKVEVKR
Data returned: 1.26

Next:
Data request: Dear colleague, I am looking for the recorded neutralization IC50 of the following binder: γ23κ18 (antibody, V domains shown) VH: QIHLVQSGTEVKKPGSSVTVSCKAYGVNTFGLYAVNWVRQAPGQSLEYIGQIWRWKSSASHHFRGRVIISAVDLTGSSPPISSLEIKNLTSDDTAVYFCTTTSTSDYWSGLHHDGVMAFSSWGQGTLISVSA VL: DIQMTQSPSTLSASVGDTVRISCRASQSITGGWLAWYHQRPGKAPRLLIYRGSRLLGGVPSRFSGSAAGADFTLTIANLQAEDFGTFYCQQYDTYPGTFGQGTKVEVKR
Data returned: 0.047

Where do these numbers come from? They come from patent US20180171001A1.
